- EXPERIMENT SUMMARY: nonspecific Ca2+ signal without MrgX1 expression – cell-based, Fluo-4 calcium flux, duplicate, agonist mode, counter-screen for MrgX1 agonist project, primary screen (AID 624115)
- RUN CONDITIONS: parental HEK293, Fluo-4 calcium fluorescence (FDSS), at 10 µM
About 350 (8.8%) of roughly 4,000 compounds were called active.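 Rule for the calls: active = calcium fluorescence ratio at least three times the spread of buffer wells, meaning a non-specific response in parental cells; inactive = the rest.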 A selection follows.
Possible outcomes: active, inactive

>>> class_label("COc1cc(CCC(=O)Nc2ccncc2Cl)cc(OC)c1OC")
"inactive"
>>> class_label("Cc1ccc(OC(=O)c2cc3ccccc3o2)cc1")
"inactive"
>>> class_label("Cc1cc2oc3ccc(NCCC4CCCN4C)cc3c(=O)c2cc1C (centres undefined)")
"active"
>>> class_label("COC(=O)Cc1cc(=O)n(-c2nc3ccccc3s2)[nH]1")
"inactive"
>>> class_label("C=CCSc1nc(Cc2ccc(Cl)cc2)nc2ccccc12")
"inactive"
>>> class_label("O=C(c1cccc(S(=O)(=O)Nc2ccccc2Cl)c1)N1CCN(C(=O)c2ccco2)CC1")
"inactive"
>>> class_label("Cc1ccc2nc(-c3ccc(NC(=O)CN(C)S(=O)(=O)c4ccccc4)cc3)sc2c1")
"inactive"
>>> class_label("CCCc1[nH]nc2c1C(c1ccc(Br)s1)C(C#N)=C(N)O2 (centres undefined)")
"inactive"
>>> class_label("CCOC(=O)C1=C(O)CSC1=Nc1cccc(Cl)c1")
"inactive"
>>> class_label("Cc1ccc(-c2nn(C(C)(C)C)c3ncnc(N)c23)cc1")
"inactive"
>>> class_label("NC(=O)c1c(Nc2nc3c(F)cccc3s2)sc2c1CCCC2")
"inactive"
>>> class_label("O=C(Oc1ccc(C(=S)N2CCOCC2)cc1)c1ccc(F)cc1")
"inactive"
>>> class_label("COC(=O)Cn1c(O)c(N=NC(=O)OC)c2ccccc21")
"inactive"
>>> class_label("CCCCC(=O)Nc1ccc2c(c1)C(=O)NC2=O")
"inactive"
>>> class_label("O=C(CC(O)(C(F)(F)F)C(F)(F)F)Nc1ccc(Cl)c(Cl)c1")
"active"
>>> class_label("C=CCNC(=O)c1cc(-c2ccccc2O)on1")
"inactive"
>>> class_label("O=c1cc(CSc2ccccn2)nc(N2CCN(c3ccccc3)CC2)[nH]1")
"inactive"
>>> class_label("O=C(Nc1ccc(Cl)cc1)Nc1ccc(Oc2cccnc2)nc1")
"inactive"
>>> class_label("Clc1ccc(C=NC23CN4CN(CN(C4)C2)C3)cc1")
"inactive"
>>> class_label("Cc1occc1C(=O)Nc1nnc(-c2ccncc2)s1")
"inactive"
>>> class_label("CCCc1nc2c(c(=O)c3ccccc3n2C)c(=O)n1C1CCCCCC1")
"inactive"
>>> class_label("Cc1ccc2nc(Nc3ccccc3)cc(C)c2c1")
"inactive"
>>> class_label("CC(Oc1ccc(F)cc1)C(=O)Nc1ccccc1C(=O)NC1CC1 (centres undefined)")
"inactive"
>>> class_label("COc1cc2c(cc1O)C(SC)=NC(C)(C)C2")
"inactive"

---

- EXPERIMENT SUMMARY: nonspecific Ca2+ signal without MrgX1 expression – cell-based, Fluo-4 calcium flux, duplicate, agonist mode, counter-screen for MrgX1 agonist project, primary screen (AID 624115)
- RUN CONDITIONS: parental HEK293, Fluo-4 calcium fluorescence (FDSS), at 10 µM
The whole screen tested about 4,000 compounds, of which about 350 (8.8%) were called active.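 Rule for the calls: active = calcium fluorescence ratio at least three times the spread of buffer wells, meaning a non-specific response in parental cells; inactive = the rest.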 Only a sample is shown.
Possible outcomes: 1 (yes) (active), 0 (no) (inactive)

>>> class_label("Cc1nn(-c2ccccc2)c(C)c1NC(=O)COc1ccc(Cl)cc1Cl")
"0 (no)"
>>> class_label("Fc1cccc(Cl)c1COc1ccc(-c2nnco2)cc1")
"0 (no)"
>>> class_label("Cc1nc(C)c(-c2csc(NCCc3ccccc3)n2)s1")
"1 (yes)"
>>> class_label("CCOC(=O)Nc1ccc2c(c1)N(C(=O)CCN1CCN(CCO)CC1)c1ccccc1CC2")
"0 (no)"
>>> class_label("CC1CCN(S(=O)(=O)c2nnc(NC(=O)COc3ccccc3F)s2)CC1")
"0 (no)"
>>> class_label("CCC(C)Sc1nc(C)nc2c1c(=O)n(C)c(=O)n2C (stereo not drawn)")
"0 (no)"
>>> class_label("COc1ccc(C(=O)NC(=S)NNC(=O)CCc2ccccc2)cc1")
"1 (yes)"
>>> class_label("c1ccc(-c2[nH]ncc2-c2nc3ccccc3[nH]2)cc1")
"0 (no)"
>>> class_label("COc1ccc(-c2cc(C(F)(F)F)nc(S(C)(=O)=O)n2)cc1OC")
"0 (no)"
>>> class_label("COc1ccc(C(=O)NC(=S)NNC(=O)c2c(-c3ccccc3)noc2C)cc1")
"1 (yes)"
>>> class_label("O=C(Nc1cccc(Cl)c1)c1cncn1-c1ccc(F)cc1")
"0 (no)"
>>> class_label("CC(Oc1ccc2ccccc2c1)C(=O)NNC(=S)NC(=O)c1ccco1 (stereo not drawn)")
"0 (no)"
>>> class_label("O=C(CCN1CCc2ccccc2C(O)(c2ccccc2)C1)c1ccc2c(c1)OCCO2 (stereo not drawn)")
"0 (no)"
>>> class_label("CCCCC(=O)NNC(=S)NC(=O)C(c1ccccc1)c1ccccc1")
"0 (no)"
>>> class_label("Cc1onc(-c2ccccc2)c1C(=O)NNC(=S)NC(=O)c1ccc(F)cc1")
"1 (yes)"
>>> class_label("S=C(NCc1ccc(Cl)cc1)NC12CC3CC(CC(C3)C1)C2")
"0 (no)"
>>> class_label("COc1ccc(-n2c(SCC(=O)NCc3ccco3)nnc2-c2c[nH]c3ccccc23)cc1")
"0 (no)"
>>> class_label("COc1ccc(C(=O)NC(=S)NC2CCCCC2)cc1")
"0 (no)"
>>> class_label("CN(CC(=O)Nc1ccccc1Cl)C(=O)COc1cccc2c1OC(C)(C)C2")
"0 (no)"
>>> class_label("O=C1Cc2ccccc2Sc2ccc(Cl)cc21")
"0 (no)"
>>> class_label("O=c1c2cc(Br)ccc2nc(-c2cccc(Cl)c2)n1O")
"1 (yes)"
>>> class_label("CCOC1CCCCC1NS(=O)(=O)c1ccc(Cl)cc1 (stereo not drawn)")
"0 (no)"
>>> class_label("CN(c1cccc(NC(=O)Nc2ccc(Cl)cc2)c1)S(C)(=O)=O")
"0 (no)"
